# System: Staphylococcus aureus ATCC 29213
Lab note - cut at 0.1 µg/mL for MIC: yes (1) if strictly below, no (0) if not.

Illustrative cases are given below, each with its answer.
compound	targetOrSystem	answerLabel
Cn1c(=O)ccc2ncc(OCCNC[C@H]3CN(c4ccc5c(n4)NC(=O)CO5)C(=O)O3)nc21 [Compound 5]	Staphylococcus aureus ATCC 29213	no (0)
Cn1c(=O)ccc2ncc(OCCNCCC3CN(c4ccc5c(n4)NC(=O)CO5)C(=O)O3)nc21 (centres unmarked) [Compound 2]	Staphylococcus aureus ATCC 29213	yes (1)
Cn1c(=O)ccc2ncc(OCCNC[C@@H]3CN(c4ccc5c(n4)NC(=O)CO5)C(=O)O3)nc21 [Compound 6]	Staphylococcus aureus ATCC 29213	no (0)
O=C(O)c1cn(C2CC2)c2cc(N3CCNCC3)c(F)cc2c1=O [Ciprofloxacin, reference compound]	Staphylococcus aureus ATCC 29213	no (0)

Query compound follows.
// query Quick check: does Cn1c(=O)cnc2ccc(OCCNC[C@H]3CN(c4ccc5c(n4)NC(=O)CO5)C(=O)O3)nc21 [Compound 3] have MIC under 0.1 µg/mL?
// result yes (1)

###

This section presents molecules with their documented IC50 values.
# targetOrSystem: human ether a go-go related gene (hERG) K+ channel (Homo sapiens (Human), UniProt Q12809)
# Sequence (Q12809 whole entry): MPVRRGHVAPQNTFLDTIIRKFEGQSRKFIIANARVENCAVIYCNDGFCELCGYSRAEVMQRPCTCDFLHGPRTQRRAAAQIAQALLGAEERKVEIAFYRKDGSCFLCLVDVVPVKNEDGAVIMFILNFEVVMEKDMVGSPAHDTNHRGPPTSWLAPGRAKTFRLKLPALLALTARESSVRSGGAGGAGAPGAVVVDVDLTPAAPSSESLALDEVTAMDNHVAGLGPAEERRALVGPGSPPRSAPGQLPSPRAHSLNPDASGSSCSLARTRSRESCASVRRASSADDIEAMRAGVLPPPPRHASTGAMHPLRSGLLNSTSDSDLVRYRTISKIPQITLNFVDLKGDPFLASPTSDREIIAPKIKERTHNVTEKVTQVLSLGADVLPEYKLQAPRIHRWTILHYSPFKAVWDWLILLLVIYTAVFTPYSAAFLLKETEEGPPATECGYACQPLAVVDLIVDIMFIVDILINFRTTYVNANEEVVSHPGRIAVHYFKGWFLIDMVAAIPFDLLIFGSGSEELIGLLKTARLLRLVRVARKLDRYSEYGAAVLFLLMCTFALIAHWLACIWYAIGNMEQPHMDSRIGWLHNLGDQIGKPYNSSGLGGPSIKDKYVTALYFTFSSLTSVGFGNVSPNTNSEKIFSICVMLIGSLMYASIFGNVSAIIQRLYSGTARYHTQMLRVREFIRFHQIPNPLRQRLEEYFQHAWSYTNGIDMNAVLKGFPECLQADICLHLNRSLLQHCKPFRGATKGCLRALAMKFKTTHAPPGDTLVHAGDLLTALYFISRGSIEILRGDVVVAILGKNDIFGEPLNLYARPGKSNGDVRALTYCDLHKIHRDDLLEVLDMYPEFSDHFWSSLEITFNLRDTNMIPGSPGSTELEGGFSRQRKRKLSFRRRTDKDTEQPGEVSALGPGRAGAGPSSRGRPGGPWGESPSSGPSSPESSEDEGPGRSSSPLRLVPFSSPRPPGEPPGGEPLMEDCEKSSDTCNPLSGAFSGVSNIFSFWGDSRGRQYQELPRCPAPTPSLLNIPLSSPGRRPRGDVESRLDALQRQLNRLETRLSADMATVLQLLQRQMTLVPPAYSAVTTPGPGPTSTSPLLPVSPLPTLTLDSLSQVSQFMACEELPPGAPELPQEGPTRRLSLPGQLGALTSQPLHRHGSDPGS
# methodSummary: hERG inhibition assay, QPatch HTX automated electrophysiology
# Assay type: cell-based
# experimentalConditions: CHO cell line stably expressing hERG, whole-cell patch clamp, maximum test concentration 300 μM

These recorded examples may help you get a feel for the data.
Cn1c(=O)cnc2ccc(OCCNC[C@H]3CN(c4cnc5c(n4)NC(=O)CO5)C(=O)O3)nc21 > 300 µM
Cn1c(=O)cnc2ccc(OCCNC[C@@H]3CN(c4ccc5c(n4)NC(=O)CO5)C(=O)O3)nc21 38 µM
Cn1c(=O)cnc2cc(Cl)c(OCCNC[C@H]3CN(c4cnc5c(n4)NC(=O)CO5)C(=O)O3)nc21 98 µM
Cn1c(=O)cnc2ccc(OCCNC[C@@H]3CN(c4cnc5c(n4)NC(=O)CO5)C(=O)O3)nc21 > 300 µM
Cn1c(=O)ccc2ncc(OCCNC[C@@H]3CN(c4ccc5c(n4)NC(=O)CO5)C(=O)O3)nc21 60 µM
Cn1c(=O)ccc2ncc(OCCNC[C@H]3CN(c4cnc5c(n4)NC(=O)CS5)C(=O)O3)nc21 > 150 µM

// query Note IC50 for the molecule shown: Cn1c(=O)cnc2cc(F)c(OCCNC[C@H]3CN(c4cnc5c(n4)NC(=O)CO5)C(=O)O3)nc21
// result > 300 µM

// query Tell me its IC50 given Cn1c(=O)cnc2ccc(OCCNC[C@H]3CN(c4ccc5c(n4)NC(=O)CO5)C(=O)O3)nc21 as the entry.
// result 40 µM

// query Write down IC50 measured for item Cn1c(=O)ccc2ncc(OCCNC[C@H]3CN(c4ccc5c(n4)NC(=O)CO5)C(=O)O3)nc21
// result 82 µM

###

# Tested on: Staphylococcus aureus ATCC 29213
measuredMetric: MIC (µg/mL)
Quick reminder: number only, in µg/mL, skip the unit.

compound	MIC / µg/mL
Cn1c(=O)cnc2cc(Cl)c(OCCNC[C@H]3CN(c4cnc5c(n4)NC(=O)CO5)C(=O)O3)nc21	0.125

// query Look up Staphylococcus aureus ATCC 29213 data: MIC of CCn1c(=O)cnc2ccc(OCCNC[C@H]3CN(c4cnc5c(n4)NC(=O)CO5)C(=O)O3)nc21 , then report it.
// result 0.03

// query Tell me its MIC on Staphylococcus aureus ATCC 29213: Cn1c(=O)cnc2ccc(OCCNC[C@H]3CN(c4cnc5c(n4)NC(=O)CO5)C(=O)O3)nc21
// result 0.06

// query Determine reported MIC for Cn1c(=O)cnc2cc(F)c(OCCNC[C@H]3CN(c4cnc5c(n4)NC(=O)CO5)C(=O)O3)nc21 ; test system: Staphylococcus aureus ATCC 29213.
// result 0.06

// query Provide the reported MIC (system: Staphylococcus aureus ATCC 29213) for Cn1c(=O)cnc2ccc(OCCNC[C@@H]3CN(c4ccc5c(n4)NC(=O)CO5)C(=O)O3)nc21
// result 0.06

// query Report value only: MIC, Staphylococcus aureus ATCC 29213, Cn1c(=O)cnc2ccc(OCCNC[C@@H]3CN(c4cnc5c(n4)NC(=O)CO5)C(=O)O3)nc21
// result 0.125

// query Recall the reported MIC of Cn1c(=O)cnc2ccc(OCCNCCC3CN(c4ccc5c(n4)NC(=O)CO5)C(=O)O3)nc21 (stereo not drawn) on Staphylococcus aureus ATCC 29213 and write it down.
// result 0.13
